Molecular target: T1, soluble recombinant human IL-1RI (corresponding to the extracellular domain of IL-1RI) (human, UniProt P14778 18-336)
T1 construct: extracellular domain
T1 sequence (looked up): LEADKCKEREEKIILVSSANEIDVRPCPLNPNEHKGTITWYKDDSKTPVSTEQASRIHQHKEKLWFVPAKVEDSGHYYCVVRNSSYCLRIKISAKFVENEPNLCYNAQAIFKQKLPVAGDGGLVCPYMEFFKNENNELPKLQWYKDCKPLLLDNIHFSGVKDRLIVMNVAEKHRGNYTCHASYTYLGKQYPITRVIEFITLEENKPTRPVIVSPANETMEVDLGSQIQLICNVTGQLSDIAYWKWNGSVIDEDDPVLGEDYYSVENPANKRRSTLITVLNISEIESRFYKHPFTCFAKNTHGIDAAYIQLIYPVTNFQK
Test: SPR (Reichert SR7000DC), soluble recombinant human IL-1RI, PBS with 0.005% Tween 20
property measured: kon (M⁻¹ s⁻¹)

binder | reported result
P02 (designed binder, Expressed in E. coli; also called chimeric cytokine domain P02) APVRSLAFRIWDVNQKTFYLRNNQLVAGYLQGPNVNLEEKIDVSFVQGEESNDKIPVALGIHGGKMCLSCVKSGDETRLQLEAVDPKNYPKKKMEKRFVFNKIEINNKLSFESAACPGWFLCTAMEADQPVSLTNMPDEGVMVTKFYMQFVSS | 33900

[P] P07 (designed binder, Expressed in E. coli) APVRSLNCRIWDVNQKTFYLRNNQLVAGYLQGPNVNLEEKFSMSFVQGEESNDKIPVALGLKEKNLYLSCVLKDDKPTLQLESVDPKNYPKKKMEKRFVFNKIEINNKLEFESAQFPNWFLCTAMEADQPVSLTNMPDEGQDITDFTMQFVSS
[Q] P06 (designed binder, Expressed in E. coli) APVRSLNCTLWDVNQKTFYLRNNQLVAGYLQGPNVEQQVVFSMSFVQGEESNDKIPVALGLKEKNLYLSCVLKDDKPTLQLESVDPKNYPKKKMEKRFVFNKIEINNKLEFESAQFPNWYISTSMEADQPVFLGGTKGGQDITDFTMQFVSS
# returns the entry with the larger kon; inputs P and Q Field: selected label. Fill in the label of the entry you choose.
Q

Data credit: patent US20140308239A1
